Measured hepatocyte intrinsic clearance by item
Test: Metabolic stability in rat hepatocyte assessed as intrinsic clearance per 10^8 cells at 0.5 uM by LC-MS/MS analysis
Type: ADME, cell-based
Conditions: hepatocytes
quantity.name: hepatocyte intrinsic clearance

                            chemical_smiles                   quantity_name    meas_value
0  Cc1cc(-c2ccn3nc(N)c(C(=O)N[C@H](C)CO)c3n2)cc2c1C(=O)N([C@@H](C)C1CC1)C2  hepatocyte intrinsic clearance  < 1.2 µL/min
1  CNS(=O)(=O)c1cc(-c2ccn3nc(N)c(C(=O)N[C@H]4CC[C@](C)(O)CC4)c3n2)cc2c1C(=O)N([C@@H](C)C(F)(F)F)C2  hepatocyte intrinsic clearance  < 1.2 µL/min
2  C[C@@H](C1CC1)N1Cc2cc(-c3ccn4nc(N)c(C(=O)N[C@@H](CO)C5CC5)c4n3)cc(OC(F)(F)F)c2C1=O  hepatocyte intrinsic clearance  < 1.2 µL/min
3  C[C@@H](C1CC1)N1Cc2cc(-c3ccn4nc(N)c(C(=O)NC5CC5)c4n3)cc(OC(F)(F)F)c2C1=O  hepatocyte intrinsic clearance  < 1.2 µL/min
4  C[C@@H](C1CC1)N1Cc2cc(-c3ccn4nc(N)c(C(=O)NC5CC5)c4n3)cc(S(C)(=O)=O)c2C1=O  hepatocyte intrinsic clearance  < 1.2 µL/min

====

Molecular target: Phosphatidylinositol 4,5-bisphosphate 3-kinase catalytic subunit gamma isoform (Homo sapiens)
Sequence (P48736 whole entry, canonical isoform): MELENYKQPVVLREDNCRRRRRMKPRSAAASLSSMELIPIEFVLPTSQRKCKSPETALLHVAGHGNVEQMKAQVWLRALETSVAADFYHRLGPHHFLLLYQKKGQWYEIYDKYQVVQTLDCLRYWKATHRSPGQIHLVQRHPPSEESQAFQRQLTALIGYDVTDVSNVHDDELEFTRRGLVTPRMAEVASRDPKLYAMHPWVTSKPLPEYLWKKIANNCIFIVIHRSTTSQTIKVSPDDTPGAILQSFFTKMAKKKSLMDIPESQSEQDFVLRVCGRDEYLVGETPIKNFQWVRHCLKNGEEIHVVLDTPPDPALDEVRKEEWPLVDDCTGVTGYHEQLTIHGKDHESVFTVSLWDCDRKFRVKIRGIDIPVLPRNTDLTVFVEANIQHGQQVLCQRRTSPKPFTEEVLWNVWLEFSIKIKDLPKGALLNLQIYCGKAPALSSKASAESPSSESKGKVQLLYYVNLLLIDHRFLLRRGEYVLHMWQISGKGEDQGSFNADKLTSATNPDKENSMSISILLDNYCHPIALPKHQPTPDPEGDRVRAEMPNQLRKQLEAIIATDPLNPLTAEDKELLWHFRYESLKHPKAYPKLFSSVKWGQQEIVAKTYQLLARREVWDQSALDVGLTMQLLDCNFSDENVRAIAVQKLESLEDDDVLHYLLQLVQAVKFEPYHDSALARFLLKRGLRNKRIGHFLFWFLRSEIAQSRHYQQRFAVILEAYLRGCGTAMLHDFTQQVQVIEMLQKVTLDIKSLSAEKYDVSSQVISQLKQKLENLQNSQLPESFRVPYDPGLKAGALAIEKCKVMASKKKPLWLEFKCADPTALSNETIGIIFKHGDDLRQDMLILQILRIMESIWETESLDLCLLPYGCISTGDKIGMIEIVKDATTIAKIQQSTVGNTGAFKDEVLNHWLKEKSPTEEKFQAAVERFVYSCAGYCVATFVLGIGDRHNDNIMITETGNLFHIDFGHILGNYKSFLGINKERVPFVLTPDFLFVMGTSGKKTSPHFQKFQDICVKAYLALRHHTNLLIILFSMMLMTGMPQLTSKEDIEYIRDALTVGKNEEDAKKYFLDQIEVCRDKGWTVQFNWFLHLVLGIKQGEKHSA
Assay: Inhibition of PI3Kgamma (unknown origin) using PIP2 as substrate preincubated for 1 hr followed by substrate addition and measured after 60 mins in presence of ATP by ADP-glo assay
pIC50: −log10 of the molar value.
Measured pIC50 by item
quantity.name: pIC50

>>> print(df.to_string())
                            chemical_smiles  quantity_name  meas_value
0  C[C@H](N1Cc2cc(-c3ccn4nc(N)c(C(=O)NC5CC5)c4n3)cc(NS(C)(=O)=O)c2C1=O)C(F)(F)F          pIC50        9.10
1  Cc1cc(-c2ccn3nc(N)c(C(=O)N[C@H]4CC[C@@](C)(O)CC4)c3n2)cc2c1C(=O)N([C@@H](C)C1CC1)C2          pIC50        8.32
2  Cc1cc(-c2ccn3nc(N)c(C(=O)NC4COC4)c3n2)cc2c1C(=O)N([C@@H](C)C1CC1)C2          pIC50        8.74

====

Target: Phosphatidylinositol 4,5-bisphosphate 3-kinase catalytic subunit gamma isoform (Homo sapiens)
Assay: Inhibition of PI3Kgamma (unknown origin) using PIP2 as substrate preincubated for 1 hr followed by substrate addition and measured after 60 mins in presence of ATP by ADP-glo assay
quantity.name: IC50

>>> print(df.to_string())
                            chemical_smiles  quantity_name  meas_value
0  Cc1cc(-c2ccn3nc(N)c(C(=O)N[C@H]4CC[C@H](N)CC4)c3n2)cc2c1C(=O)N([C@@H](C)C1CC1)C2           IC50        2 nM
1  Cc1cc(-c2ccn3nc(N)c(C(=O)N[C@H]4CC[C@](C)(O)CC4)c3n2)cc2c1C(=O)N([C@@H](C)C1CC1)C2           IC50        3 nM
2  C[C@@H](C1CC1)N1Cc2cc(-c3ccn4nc(N)c(C(=O)NC5CC5)c4n3)cc(S(C)(=O)=O)c2C1=O           IC50      2.4 nM
3  Cc1cc(-c2ccn3nc(N)c(C(=O)Nc4cnn(C)c4)c3n2)cc2c1C(=O)N([C@@H](C)C1CC1)C2           IC50      3.4 nM
4  C[C@H](N1Cc2cc(-c3ccn4nc(N)c(C(=O)N[C@@H](CO)C5CC5)c4n3)cc(NS(C)(=O)=O)c2C1=O)C(F)(F)F           IC50      3.5 nM
5  C[C@@H](C1CC1)N1Cc2cc(-c3ccn4nc(N)c(C(=O)NC5CC5)c4n3)cc(S(=O)(=O)C3CCC3)c2C1=O           IC50        3 nM
